test system: M14 melanoma; test: NCI-60 one-dose screen, 48 h (100 = growth as untreated, 0 = no growth, -100 = all killed); conditions: 10 µM unless noted
This is part of a sample that, as a whole, favours compounds with a hit. Of some 83,000 tested, about 20% had one in any assay. Activity calls are given as the source filed them. The calls were made as follows: active = growth percent below 10; inactive = the rest.
growth reference

Fill in: growth of `COc1ccc(-c2nc3cc(C(=O)NCc4ccccc4)ccc3n2C2CCCCC2)cc1` is ___ 78.1% (inactive)

Fill in: growth of `Nc1n[nH]c2cccc(C#Cc3cccc(C(=O)Nc4cc(C(F)(F)F)cc(C(F)(F)F)c4)c3)c12` is ___ 34.1% (inactive)

Fill in: growth of `CCOC(=O)c1cc(C)n(-c2ccc(C(=O)O)cc2)c1C` is ___ 89.7% (inactive)

Fill in: growth of `NC(=O)C(=O)c1ccccc1NC=O` is ___ 92.7% (inactive)

Fill in: growth of `O=C(C[C@]1(O)C(=O)Nc2ccccc21)c1cccc(C(F)(F)F)c1` is ___ 93.1% (inactive)

Fill in: growth of COC(CC(F)F)c1cn(S(=O)(=O)c2ccc(C)cc2)c2ccccc12 (stereo not given) is ___ 7.65% (active)

Fill in: growth of `Cn1cc(-c2csc(-c3c[nH]c4ccccc34)n2)c2cnccc21` is ___ -80.2% (active)
